Biological target: mPGES-1 in A549 cells (Homo sapiens (Human), UniProt O14684)
Sequence (O14684 whole entry): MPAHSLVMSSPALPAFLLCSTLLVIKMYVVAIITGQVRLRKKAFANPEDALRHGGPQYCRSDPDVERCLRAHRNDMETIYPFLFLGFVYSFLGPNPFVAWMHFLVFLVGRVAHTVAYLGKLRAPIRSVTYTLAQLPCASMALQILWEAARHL
Assay: A549 cell-based assay (PGE2 formation, 50% human serum)
Settings: IL-1β 5 ng/ml, 10 nM arachidonic acid, 20-24 h, read-out: mPGES-1 inhibitory effect IC50 in the cell assay
Exercise: state measured IC50 for each of the compounds provided.
Write the answer as a number in nM, unit excluded.

Exercise: Fill in: IC50 of "Cn1c(Nc2c(Cl)ccc(CNC(=O)[C@](C)(O)C(F)(F)F)c2Cl)nc2cc(C(=O)N[C@H]3CC[C@@H](C(F)(F)F)CC3)c(N3CCC(C(F)(F)F)CC3)cc21" is ___
Key: 4

Exercise: Next up: "Cn1c(Nc2c(Cl)ccc(CNC(=O)C(C)(C)C(F)(F)F)c2Cl)nc2cc(C(=O)Nc3ccc(F)c(Cl)c3)c(N3CCC(C(F)(F)F)CC3)cc21"
Key: 1.4

Exercise: Next up: Cc1ccnc(C(=O)NCc2ccc(Cl)c(Nc3nc4cc(C(=O)N[C@H]5CC[C@H](C(F)(F)F)CC5)c(N5CC6CC6C5)cc4n3C)c2Cl)c1 (stereo partly drawn)
Key: 9

* * *

Biological target: mPGES-1 in A549 cells (Homo sapiens (Human))
Test: A549 cell-based assay (PGE2 formation, 50% human serum)
Details: IL-1β 5 ng/ml, 10 nM arachidonic acid, 20-24 h, read-out: mPGES-1 inhibitory effect IC50 in the cell assay
Experimental Readout: IC50 (nM)
Write the answer as a number in nM, unit excluded.

Exercise: Fill in: IC50 of Cn1c(Nc2c(Cl)ccc(CNC(=O)C(C)(C)CO)c2Cl)nc2cc(C(=O)N[C@H]3CC[C@H](C(F)(F)F)CC3)c(N3CC4CC4C3)cc21 (stereo partly drawn) is ___
Key: 2.1

Exercise: Next up: "CN(CC(C)(C)O)c1cc2c(cc1C(=O)N[C@H]1CC[C@H](C(F)(F)F)CC1)nc(Nc1c(Cl)ccc(CNC(=O)C(C)(C)C)c1Cl)n2C"
Key: 1

Exercise: Next up: "Cn1c(Nc2c(Cl)ccc(CNC(=O)C(C)(C)F)c2Cl)nc2cc(C(=O)N[C@H]3CC[C@H](C(F)(F)F)CC3)c(N3CCC4(CC3)CC4)cc21"
Key: 1

Exercise: Next up: "CN(Cc1nccn1C)c1cc2c(cc1C(=O)N[C@H]1CC[C@H](C(F)(F)F)CC1)nc(Nc1c(Cl)ccc(CNC(=O)C(C)(C)C)c1Cl)n2C"
Key: 1.5

Exercise: Next up: Cn1c(Nc2c(Cl)ccc(CNC(=O)C(C)(C)C)c2Cl)nc2cc(C(=O)N[C@H]3CC[C@H](C(F)(F)F)CC3)c(N3CC4COCC4C3)cc21 (stereo partly drawn)
Key: 1.5

* * *

Target: mPGES-1 in A549 cells (Homo sapiens (Human))
Experiment: A549 cell-based assay (PGE2 formation, 50% human serum)
Details: IL-1β 5 ng/ml, 10 nM arachidonic acid, 20-24 h, read-out: mPGES-1 inhibitory effect IC50 in the cell assay
Experimental Readout: pIC50
// pIC50: -log10(molar conc.)

Exercise: Fill in: pIC50 of Cc1nc(C)c(C(=O)NCc2ccc(Cl)c(Nc3nc4cc(C(=O)N[C@H]5CC[C@H](C(F)(F)F)CC5)c(N5CC6CC6C5)cc4n3C)c2Cl)s1 (stereo partly drawn) is ___
Key: 7.37

Exercise: Next up: "Cn1c(Nc2c(Cl)ccc(CNC(=O)C(C)(C)C(F)(F)F)c2Cl)nc2cc(C(=O)N[C@H]3CC[C@H](C(F)(F)F)CC3)c(N3CC[C@@H](F)C3)cc21"
Key: 9.00

* * *

Biological target: mPGES-1 in A549 cells (Homo sapiens (Human), UniProt O14684)
Assay: A549 cell-based assay (PGE2 formation, 50% human serum)
Conditions: IL-1β 5 ng/ml, 10 nM arachidonic acid, 20-24 h, read-out: mPGES-1 inhibitory effect IC50 in the cell assay
Description: Although the enzymatic assay is a high throughput assay the disadvantage is that it uses a recombinant protein which is not in its natural environment. Accordingly a cellular assay was established in which a cell line of human origin (A549) expressing the mPGES-1 protein was used. […] Concentrations of PGE2 in the cell free medium (10 μl) were measured using a commercially available HTRF kit from Cisbio (as described above). […]
Exercise: state measured pIC50 for each of the molecules provided.
// pIC50: -log10(molar conc.)

Exercise: Fill in: pIC50 of Cn1c(Nc2c(Cl)ccc(CNC(=O)C3(C(F)(F)F)CC3)c2Cl)nc2cc(C(=O)N[C@H]3CC[C@H](C(F)(F)F)CC3)c(N3CC4CC4C3)cc21 (stereo partly drawn) is ___
Key: 9.00

Exercise: Next up: Cn1c(Nc2c(Cl)ccc(CNC(=O)C(C)(C)C)c2Cl)nc2cc(C(=O)NC(c3ccccn3)C(F)(F)F)c(N3CCC(F)(F)C3)cc21 (stereo not drawn)
Key: 8.22

Exercise: Next up: "Cn1c(Nc2c(Cl)ccc(CNC(=O)C(C)(C)C(F)(F)F)c2Cl)nc2cc(C(=O)Nc3ccc(OC(F)(F)F)cc3)c(N3CC[C@@H](F)C3)cc21"
Key: 8.70

Exercise: Next up: "Cn1c(Nc2c(Cl)ccc(CNC(=O)C(C)(C)C)c2Cl)nc2cc(C(=O)NCC(F)(F)F)c(N3CCC(C(F)(F)F)CC3)cc21"
Key: 8.82

Exercise: Next up: "Cn1c(Nc2c(Cl)ccc(CNC(=O)C(C)(C)C(F)(F)F)c2Cl)nc2cc(C(=O)Nc3ccc(OC(F)(F)F)cc3)c(N3CCC(C(F)(F)F)CC3)cc21"
Key: 8.70

Exercise: Next up: Cn1c(Nc2c(Cl)ccc(CNC(=O)C(C)(C)C)c2Cl)nc2cc(C(=O)Nc3ccc(Cl)c(F)c3)c(N3CC4CC4C3)cc21 (stereo not drawn)
Key: 8.80

Exercise: Next up: "CN(c1cc2c(cc1C(=O)NCC(F)(F)F)nc(Nc1c(Cl)ccc(CNC(=O)C(C)(C)C)c1Cl)n2C)C1CC1"
Key: 9.00

Exercise: Next up: "Cc1nc2c(s1)CN(c1cc3c(cc1C(=O)NCC(F)(F)F)nc(Nc1c(Cl)ccc(CNC(=O)C(C)(C)C)c1Cl)n3C)C2"
Key: 8.10

Exercise: Next up: Cn1c(Nc2c(Cl)ccc(CNC(=O)C(C)(C)F)c2Cl)nc2cc(C(=O)N[C@H]3CC[C@H](C(F)(F)F)CC3)c(N3CC4CC4C3)cc21 (stereo partly drawn)
Key: 8.70

* * *

Molecular target: recombinant human mPGES-1 (Homo sapiens (Human), UniProt O14684)
Sequence (O14684 whole entry): as above
Assay: mPGES-1 enzyme assay (HTRF detection of PGE2)
Type: biochemical
Settings: recombinant human mPGES-1 microsomes, PGH2 2 μM, 60 seconds; read-out: mPGES-1 inhibitory effect IC50 in the enzyme assay
Experimental Readout: IC50
# number then unit; no other words

Exercise: Fill in: IC50 of "Cn1c(Nc2c(Cl)ccc(CNC(=O)C(C)(C)C)c2Cl)nc2cc(C(=O)Nc3cccc(C(F)(F)F)n3)c(N3CC[C@@H](F)C3)cc21" is ___
Key: 3.8 nM

Exercise: Next up: "Cn1c(Nc2c(Cl)ccc(CNC(=O)C(C)(C)C)c2Cl)nc2cc(C(=O)NC3CCN(CC(F)(F)F)CC3)c(N3CCC(C(F)(F)F)CC3)cc21"
Key: 4 nM

Exercise: Next up: "Cn1c(Nc2c(Cl)ccc(CNC(=O)C(C)(C)C)c2Cl)nc2cc(C(=O)Nc3ccc(OC(F)(F)F)cc3)c(N3CC[C@H](F)C3)cc21"
Key: 3 nM

Exercise: Next up: Cn1c(Nc2c(Cl)ccc(CNC(=O)C(C)(C)C)c2Cl)nc2cc(C(=O)NCCC(F)(F)F)c(N3CCCC(C(F)(F)F)C3)cc21 (centres unmarked)
Key: 4 nM

Exercise: Next up: "Cn1c(Nc2c(Cl)ccc(CNC(=O)C(C)(C)C)c2Cl)nc2cc(C(=O)NCc3ncccc3C(F)(F)F)c(N3CCC(F)(F)C3)cc21"
Key: 3 nM

Exercise: Next up: "CC1(O)CCN(c2cc3c(cc2C(=O)N[C@H]2CC[C@H](C(F)(F)F)CC2)nc(Nc2c(Cl)ccc(CNC(=O)C(C)(C)F)c2Cl)n3CC(F)F)CC1"
Key: 2 nM

Exercise: Next up: "Cn1c(Nc2c(Cl)ccc(CNC(=O)C(C)(C)C)c2Cl)nc2cc(C(=O)Nc3ccc(OC(F)(F)F)cc3)c(N3CCC(F)(F)C3)cc21"
Key: 2 nM

Exercise: Next up: "CN(Cc1nccn1C)c1cc2c(cc1C(=O)N[C@H]1CC[C@H](C(F)(F)F)CC1)nc(Nc1c(Cl)ccc(CNC(=O)C(C)(C)C)c1Cl)n2C"
Key: 2 nM

Exercise: Next up: "Cn1c(Nc2c(Cl)ccc(CNC(=O)C(C)(C)F)c2Cl)nc2cc(C(=O)NC3CC(F)(F)C3)c(N3CCC(C(F)(F)F)CC3)cc21"
Key: 3.9 nM

Exercise: Next up: "Cn1c(Nc2c(Cl)ccc(CNC(=O)C(C)(C)C)c2Cl)nc2cc(C(=O)N[C@H]3CC[C@H](C(F)(F)F)CC3)c(N3CC4(COC4)C3)cc21"
Key: 3 nM

Exercise: Next up: "CN(CC(N)=O)c1cc2c(cc1C(=O)N[C@H]1CC[C@H](C(F)(F)F)CC1)nc(Nc1c(Cl)ccc(CNC(=O)C(C)(C)F)c1Cl)n2C"
Key: 2 nM

Exercise: Next up: "Cn1c(Nc2c(Cl)ccc(CNC(=O)C(C)(C)F)c2Cl)nc2cc(C(=O)Nc3ccc(F)c(Cl)c3)c(N3CCC(F)(F)C3)cc21"
Key: 2 nM

Exercise: Next up: Cn1c(Nc2c(Cl)ccc(CNC(=O)C(C)(C)C)c2Cl)nc2cc(C(=O)N[C@H]3CC[C@H](C(F)(F)F)CC3)c(N3CC4CCCC4C3)cc21 (some centres unmarked)
Key: 2 nM

Exercise: Next up: "CC(C)(C)C(=O)NCc1ccc(Cl)c(Nc2nc3cc(C(=O)NCC(F)(F)C(F)(F)F)c(N4CCC(C(F)(F)F)CC4)cc3n2CC(F)F)c1Cl"
Key: 1 nM

Exercise: Next up: "Cn1c(Nc2c(Cl)ccc(CNC(=O)C(C)(C)C)c2Cl)nc2cc(C(=O)N[C@H]3CC[C@H](C(F)(F)F)CC3)c(N3CCN(C4CC4)CC3)cc21"
Key: 1 nM

Exercise: Next up: "CN(CC(C)(C)O)c1cc2c(cc1C(=O)N[C@H]1CC[C@H](C(F)(F)F)CC1)nc(Nc1c(Cl)ccc(CNC(=O)C(C)(C)C)c1Cl)n2C"
Key: 2 nM

Exercise: Next up: "CC(C)(C)C(=O)NCc1ccc(F)c(Nc2nc3cc(C(=O)N[C@H]4CC[C@H](C(F)(F)F)CC4)c(N4CCC(F)CC4)cc3[nH]2)c1F"
Key: 2 nM

Exercise: Next up: "Cn1c(Nc2c(Cl)ccc(CNC(=O)C(C)(C)C)c2Cl)nc2cc(C(=O)Nc3ccc(F)c(Cl)c3)c(N3CC[C@@H](F)C3)cc21"
Key: 2.9 nM

Exercise: Next up: "Cn1c(Nc2c(Cl)ccc(CNC(=O)C(C)(C)C)c2Cl)nc2cc(C(=O)NCC(F)(F)C(F)(F)F)c(N3CCC(F)(F)C3)cc21"
Key: 3 nM

Exercise: Next up: "Cn1c(Nc2c(Cl)ccc(CNC(=O)C(C)(C)C)c2Cl)nc2cc(C(=O)N[C@H]3CC[C@H](C(F)(F)F)CC3)c(N3CC(F)(F)C3)cc21"
Key: 4 nM

Exercise: Next up: Cn1c(Nc2c(Cl)ccc(CNC(=O)C(C)(C)C)c2Cl)nc2cc(C(=O)Nc3ccc(OC(F)(F)F)cc3)c(N3CCCC(C(F)(F)F)C3)cc21 (centres unmarked)
Key: 3 nM

Exercise: Next up: "Cn1c(Nc2c(Cl)ccc(CNC(=O)C(C)(C)C)c2Cl)nc2cc(C(=O)N[C@H]3CC[C@H](C(F)(F)F)CC3)c(N3CCn4cncc4C3)cc21"
Key: 5 nM

Exercise: Next up: "C#CCN(C)c1cc2c(cc1C(=O)N[C@H]1CC[C@H](C(F)(F)F)CC1)nc(Nc1c(Cl)ccc(CNC(=O)C(C)(C)C)c1Cl)n2C"
Key: 1 nM
